Source of measurements: patent US4724237A

Below, each of the compounds is paired with its reported IC50 value.
Biological target: CCK receptor (brain) (Cavia porcellus, UniProt H0VZC5)
Construct: The cerebral cortex was dissected and used as a receptor source; from tissue; host or cells: cerebral cortex of male Hartley guinea pig, membrane homogenate
Sequence (H0VZC5 entry or part of it): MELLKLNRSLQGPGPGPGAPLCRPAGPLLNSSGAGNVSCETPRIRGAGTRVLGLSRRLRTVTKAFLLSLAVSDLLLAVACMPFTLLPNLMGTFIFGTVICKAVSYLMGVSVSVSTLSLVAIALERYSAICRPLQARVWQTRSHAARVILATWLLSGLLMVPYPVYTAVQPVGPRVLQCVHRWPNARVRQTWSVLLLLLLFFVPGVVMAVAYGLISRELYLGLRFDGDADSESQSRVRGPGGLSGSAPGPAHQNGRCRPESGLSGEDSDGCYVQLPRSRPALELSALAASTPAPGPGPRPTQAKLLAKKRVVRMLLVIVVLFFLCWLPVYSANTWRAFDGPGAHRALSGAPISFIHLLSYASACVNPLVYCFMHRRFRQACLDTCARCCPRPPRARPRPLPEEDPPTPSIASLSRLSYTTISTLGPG
Experiment: CCK receptor binding (brain) method, inhibition of ^125 I-CCK-33 binding
Set-up: species or system male Hartley guinea pig
Provide the reading as a plain figure in µM.

Below, each entry is followed by its recorded IC50 result.
INSERT INTO assay_data (compound, target_entity, unit_annotation, value) VALUES
  ('CN1c2ccccc2C(c2ccccc2F)=NCC1CNC(=O)[C@H](Cc1c[nH]c2ccccc12)NC(=O)OC(C)(C)C (some centres unmarked)', 'CCK receptor (brain) (Cavia porcellus, UniProt H0VZC5)', 'µM', 38.6),
  ('CN1c2ccccc2C(c2ccccc2F)=NCC1CNC(=O)CCC(=O)OCc1ccccc1 (centres unmarked)', 'CCK receptor (brain) (Cavia porcellus, UniProt H0VZC5)', 'µM', 55);

Consider the record given below.
Provide IC50 value for the following compound: CN1c2ccccc2C(c2ccccc2F)=NCC1CNC(=O)Cc1cccc2sccc12 (centres unmarked)
23

====

Target: CCK receptor (brain) (Cavia porcellus, UniProt H0VZC5)
Construct: The cerebral cortex was dissected and used as a receptor source; from tissue; host or cells: cerebral cortex of male Hartley guinea pig, membrane homogenate
Assay: CCK receptor binding (brain) method, inhibition of ^125 I-CCK-33 binding
Parameters: species or system male Hartley guinea pig
Details: read-out: IC50 CCK, Brain
pIC50: −log10 of the molar value.
Below, each of the molecules is paired with its reported pIC50 value.

Below, each entry is followed by its recorded pIC50 result.
INSERT INTO results (molecule, recorded_metric, value) VALUES
  ('CN1c2ccccc2C(c2ccccc2F)=NCC1CNC(=O)Cc1c[nH]c2ccccc12 (stereo not shown) [Example 4, hydrate]', 'pIC50', 4.25),
  ('CN1c2ccccc2C(c2ccccc2F)NCC1CNC(=O)c1ccsc1 (stereo not shown) [Example 14]', 'pIC50', '~4.00'),
  ('CC(=O)NCSCC(=O)NCC1CN=C(c2ccccc2F)c2ccccc2N1C (stereo not shown) [Example 13, hydrate]', 'pIC50', '~4.00');

Consider the record given below.
Provide pIC50 value for the following molecule: CN1c2ccccc2C(c2ccccc2F)=NCC1CNc1cccc(C(F)(F)F)c1 (stereo not shown) [Example 6]
~4.00

====

Target: CCK receptor (pancreas) (Rattus norvegicus)
Construct: The whole pancreas of a male Sprague-Dawley rat (200-350 g); from tissue; host or cells: whole pancreas of male Sprague-Dawley rat, washed membrane homogenate
Assay: CCK receptor binding (pancreas) method, inhibition of ^125 I-CCK-33 binding
Set-up: species or system male Sprague-Dawley rat
Where a name gives a salt, the structure may show the parent alone.
recorded-metric: pIC50
Reminder that pIC50 means the negative base-10 logarithm of the concentration expressed in mol/L.

INSERT INTO measurements (molecule, target_entity, recorded_metric, value) VALUES
  ('CN1c2ccccc2C(c2ccccc2F)=NCC1CNc1cccc(C(F)(F)F)c1 (stereo not shown)', 'CCK receptor (pancreas) (Rattus norvegicus)', 'pIC50', 5.66),
  ('CN1c2ccccc2C(c2ccccc2F)=NCC1CNC(=O)[C@@H](N)Cc1c[nH]c2ccccc12 (stereo partly shown) [Example 9, dihydrochloride sesquihydrate]', 'CCK receptor (pancreas) (Rattus norvegicus)', 'pIC50', 4.94),
  ('CN1c2ccccc2C(c2ccccc2F)=NCC1CNC(=O)Cc1c[nH]c2ccccc12 (stereo not shown) [Example 4, hydrate]', 'CCK receptor (pancreas) (Rattus norvegicus)', 'pIC50', 6.00);

Consider the record given below.
Report pIC50 from CCK receptor (pancreas) (Rattus norvegicus) testing of CN1c2ccccc2C(c2ccccc2F)=NCC1CNC(=O)[C@H](Cc1c[nH]c2ccccc12)NC(=O)OC(C)(C)C (stereo partly shown)
5.39

====

Target: CCK receptor (pancreas) (Rattus norvegicus, UniProt P30551)
Construct: The whole pancreas of a male Sprague-Dawley rat (200-350 g); from tissue; host or cells: whole pancreas of male Sprague-Dawley rat, washed membrane homogenate
Sequence (P30551 1-444): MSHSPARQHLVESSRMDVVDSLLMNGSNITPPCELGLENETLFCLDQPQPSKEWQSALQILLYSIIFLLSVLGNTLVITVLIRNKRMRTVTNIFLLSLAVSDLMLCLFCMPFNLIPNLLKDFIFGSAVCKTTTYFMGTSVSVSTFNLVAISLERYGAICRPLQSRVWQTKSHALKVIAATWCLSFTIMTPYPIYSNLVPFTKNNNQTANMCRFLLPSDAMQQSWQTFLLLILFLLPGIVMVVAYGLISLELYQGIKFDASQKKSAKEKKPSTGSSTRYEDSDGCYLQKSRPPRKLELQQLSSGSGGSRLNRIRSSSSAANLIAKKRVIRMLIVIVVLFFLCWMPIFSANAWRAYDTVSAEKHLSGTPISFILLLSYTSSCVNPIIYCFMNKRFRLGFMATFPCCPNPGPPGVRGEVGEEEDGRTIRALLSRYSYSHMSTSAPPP
Experiment: CCK receptor binding (pancreas) method, inhibition of ^125 I-CCK-33 binding
Parameters: species or system male Sprague-Dawley rat
Details: concentration required to cause inhibition of 50% of the ^125 I-CCK binding; pancreas; 37° C., 30 minutes
pIC50: −log10 of the molar value.
Assign class by pIC50: not lower than 5 means yes; lower than 5 means no.

INSERT INTO assay_data (molecule, target_entity, qualitative_label) VALUES
  ('CC(=O)NCSCC(=O)NCC1CN=C(c2ccccc2F)c2ccccc2N1C (stereo not shown) [Example 13, hydrate]', 'CCK receptor (pancreas) (Rattus norvegicus, UniProt P30551)', 'no'),
  ('CN1c2ccccc2C(c2ccccc2F)=NCC1CNC(=O)Cc1cccc2sccc12 (stereo not shown) [Example 2]', 'CCK receptor (pancreas) (Rattus norvegicus, UniProt P30551)', 'yes'),
  ('CC(C)COC(=O)NCC1CN=C(c2ccccc2F)c2ccccc2N1C (stereo not shown) [Example 8]', 'CCK receptor (pancreas) (Rattus norvegicus, UniProt P30551)', 'yes'),
  ('CN1c2ccccc2C(c2ccccc2F)=NCC1CNC(=O)CCC(=O)OCc1ccccc1 (stereo not shown) [Example 12]', 'CCK receptor (pancreas) (Rattus norvegicus, UniProt P30551)', 'no'),
  ('CN1c2ccccc2C(c2ccccc2F)=NCC1CNC(=O)c1cc2ccccc2[nH]1 (stereo not shown) [Example 1]', 'CCK receptor (pancreas) (Rattus norvegicus, UniProt P30551)', 'yes');

Now look at this entry.
Quick check, pIC50 >= 5? CN1c2ccccc2C(c2ccccc2F)NCC1CNC(=O)c1ccsc1 (stereo not shown) [Example 14]
yes

====

Molecular target: CCK receptor (pancreas) (Rattus norvegicus, UniProt P30551)
Construct: The whole pancreas of a male Sprague-Dawley rat (200-350 g); from tissue; host or cells: whole pancreas of male Sprague-Dawley rat, washed membrane homogenate
Assay: CCK receptor binding (pancreas) method, inhibition of ^125 I-CCK-33 binding
Set-up: species or system male Sprague-Dawley rat
recorded-metric: IC50 (nM)
Provide the reading as a plain figure in nM.

INSERT INTO measurements (compound, recorded_metric, value) VALUES
  ('CC(=O)NCSCC(NC(=O)OC(C)(C)C)C(=O)NCC1CN=C(c2ccccc2F)c2ccccc2N1C (stereo not drawn) [Example 11, hemihydrate]', 'IC50', 24000),
  ('COC(=O)[C@H](Cc1ccccc1)NCC1CN=C(c2ccccc2F)c2ccccc2N1C (stereo partly drawn) [Example 5]', 'IC50', 1600);

Consider the record given below.
Provide IC50 value for the following compound: CN1c2ccccc2C(c2ccccc2F)=NCC1CNC(=O)[C@@H](O)c1ccccc1 (stereo partly drawn) [Example 3]
600
